tested on: OVCAR-5; assay: NCI tumour cell line growth inhibition, 48 h
Calls of active or inactive are those of the source. Cut-off read from the data, not from the text of the source: active = GI50 up to about 1.1 µM and inactive = higher.
Recorded Endpoint: GI50

Past entries and their recorded results:
{"Molecule": "Cc1ccc2c(=O)c(C(=O)N(CCO)CCO)c[nH]c2n1", "Target Under Test": "OVCAR-5", "GI50": "> 100 µM (inactive)"}
{"Molecule": "Cc1c(-c2ccccc2)nn2cc(-c3ccccc3)nnc12", "Target Under Test": "OVCAR-5", "GI50": "30.7 µM (inactive)"}
{"Molecule": "C[N+](C)(C)CC(=O)N/N=C(/C=C/c1ccccc1)CC1OC(=O)c2ccccc21 (stereo not given)", "Target Under Test": "OVCAR-5", "GI50": "> 10 µM (inactive)"}
{"Molecule": "C[N+](C)(CCCn1ccnc1[N+](=O)[O-])CCCn1ccnc1[N+](=O)[O-]", "Target Under Test": "OVCAR-5", "GI50": "> 100 µM (inactive)"}
{"Molecule": "C[C@]12CCNC(=O)C=C1CC[C@@H]1C2CC[C@@]2(C)C1CC[C@@H]2OC(=O)COc1ccc(N(CCCl)CCCl)cc1 (stereo not given in full)", "Target Under Test": "OVCAR-5", "GI50": "12.6 µM (inactive)"}

Indicate its recorded GI50; the molecule in question is COc1ccc(/C=N/NC(=S)Nc2cc(C)ccc2OC)cc1 16.9 µM (inactive)

Indicate its recorded GI50; the molecule in question is c1ccc2c(NCCCCCCCCNc3cccc4ccccc34)cccc2c1 46 µM (inactive)

Indicate its recorded GI50; the molecule in question is CC(C)/C(Cl)=N/OC(=O)Nc1cccc(C(F)(F)F)c1 18.9 µM (inactive)

---

GI50 values, listed per item
test system: A549; assay: NCI tumour cell line growth inhibition, 48 h
Active and inactive are the calls of the source. Rule as the data show it: active = GI50 up to about 1.1 µM and inactive = higher. Numbered stars: 1 amine (or outer) side, 2 acyl side, 3 side chain; on linkers, the order of the positions; unused ones are H or OH. Square brackets hold non-standard residues; d marks the D form. Peptide text beside a SMILES is read from it. * marks the point of attachment. X30 = CC(=O)N(C)SCC(N[*:1])C(=O)[*:2]; Cbz = O=C(OCc1ccccc1)*; Bn = c1ccc(C*)cc1

{"Molecule": "CCOC(=O)/C(C#N)=C\\C=C1/C=CN=C2NCCN21", "Value Reported": "> 100 µM (inactive)"}

// switching to the query molecule
For A549, give the measured GI50 of the entry CC(=O)N(C)SCC(NC(=O)C(Cc1ccccc1)NC(=O)OCc1ccccc1)C(=O)NC(Cc1ccccc1)C(=O)NC(Cc1c[nH]c2ccccc12)C(=O)NC(CCCCNC(=O)OCc1ccccc1)C(=O)NC(C(=O)NC(CSN(C)C(C)=O)C(=O)NC(C(N)=O)C(C)OCc1ccccc1)C(C)OCc1ccccc1 (configuration not stated) (Cbz-F[X30]FWK(Cbz)T(Bn)[X30]T(Bn)-NH2; configuration not given here) > 100 µM (inactive)

---

test system: SK-MEL-2; experiment: NCI tumour cell line growth inhibition, 48 h
The source made the active and inactive calls. No stated cut-off is given here; in the data, active = GI50 up to about 1.1 µM and inactive = higher.
Give one outcome, nothing more. List: yes (1) (active), no (0) (inactive)

{"Compound": "Cc1cccc(N2C(=O)C(=O)C(c3nc4ccccc4s3)/C(=N/NC(=S)NN)C2=O)c1C (stereo not given)", "Label Value": "no (0)"}
{"Compound": "Cc1ccc(C)n1-n1c(Cc2ccccc2)n[nH]c1=O", "Label Value": "no (0)"}
{"Compound": "O=C1c2cccnc2S(=O)(=O)N1c1ccc(Br)cc1", "Label Value": "no (0)"}
{"Compound": "COC(=O)C1=C(O)C(O)=C(C(=O)OC)CC1", "Label Value": "no (0)"}
{"Compound": "Cc1n(CC(=O)c2ccc([N+](=O)[O-])cc2)c2c([n+]1CC(C)C)C(=O)c1ccccc1C2=O", "Label Value": "yes (1)"}
{"Compound": "CC(=O)Oc1ccccc1[C@H]1CC(=O)C[C@H](c2ccccc2OC(C)=O)C12C(=O)c1ccccc1C2=O", "Label Value": "no (0)"}
{"Compound": "COC(=O)C1=C(OC)[C@H]2C#C/C=C\\C#C[C@@H]3Nc4c(cc(O)c5c4C(=O)c4ccccc4C5=O)[C@]24O[C@@]34[C@H]1C", "Label Value": "yes (1)"}
{"Compound": "COc1cccc2c(=O)oc(-c3ccc(C(C)(C)C)cc3)nc12", "Label Value": "no (0)"}
{"Compound": "C=Cc1c(-c2ccccc2)cnc2[nH]c3ccccc3c12", "Label Value": "no (0)"}

Per the assay record, what outcome was assigned to c1ccc2c(NCCCCCCCCNc3cccc4ccccc34)cccc2c1 ? no (0)

---

tested on: LOX IMVI; assay: NCI tumour cell line growth inhibition, 48 h
The source made the active and inactive calls. Rule as the data show it: active = GI50 up to about 1.1 µM and inactive = higher.
Recorded Endpoint: GI50

Past entries and their recorded results:
{"Compound": "CCOC(=O)C(Cc1c2ccccc2cc2ccccc12)(NC(C)=O)C(=O)OCC", "Value Reported": "> 100 µM (inactive)"}
{"Compound": "CN(C)c1ccc(-c2cc(O)c3cc4c(cc3n2)OCO4)cc1", "Value Reported": "> 100 µM (inactive)"}
{"Compound": "CC(C)C[C@H](NC(=O)CCc1ccccc1)B(O)O", "Value Reported": "4.63 µM (inactive)"}
{"Compound": "O=C(CSc1nc2ccccc2s1)c1sc2sc3ccccc3[n+]2c1[O-]", "Value Reported": "> 100 µM (inactive)"}
{"Compound": "N#CC(C#N)=C/C=C/c1ccccc1[N+](=O)[O-]", "Value Reported": "2.52 µM (inactive)"}
{"Compound": "COc1cccc(NC(=O)CC(=O)NN2C(=O)/C(=C/c3ccc(N(CCC#N)CCC#N)cc3)N=C2c2cc([N+](=O)[O-])ccc2Cl)c1", "Value Reported": "> 100 µM (inactive)"}

Indicate its recorded GI50; the compound in question is Cc1ccc(-n2nnc3c(NNc4ccccc4)n[nH]c(=O)c32)cc1 > 100 µM (inactive)

Indicate its recorded GI50; the compound in question is N#CC(C#N)=CNC(=S)Nc1ccc(S(=O)(=O)Nc2nccs2)cc1 > 100 µM (inactive)

Indicate its recorded GI50; the compound in question is O=C1C=C/C(=N/c2cccc3c(/N=C4/C=CC(=O)O4)cccc23)O1 27.8 µM (inactive)

Indicate its recorded GI50; the compound in question is CC(C)CC1N=C(OCc2ccccc2)OC1=O (stereo unspecified) > 100 µM (inactive)

Indicate its recorded GI50; the compound in question is COc1nc2c(c(O)c(C)c(=O)n2OC2OCC(OC(C)=O)C(OC(C)=O)C2OC(C)=O)c(=O)n1C (stereo unspecified) > 100 µM (inactive)

Indicate its recorded GI50; the compound in question is CCOC(=O)C(=O)C(/C(=N/N(C)C)C(=O)Nc1ccc(C)cc1C)c1nc2ccccc2nc1O (stereo unspecified) > 100 µM (inactive)

Indicate its recorded GI50; the compound in question is Cn1cc(C=C(C#N)C#N)c(=O)n(C)c1=O > 100 µM (inactive)

Indicate its recorded GI50; the compound in question is CC(C)OC1=C(CC2(C)OCCO2)C(=O)C12OCCO2 > 100 µM (inactive)

Indicate its recorded GI50; the compound in question is CC(=O)c1c[nH]cc1CO > 10 µM (inactive)

---

GI50 values, listed per item
test system: NCI-H23; experiment: NCI tumour cell line growth inhibition, 48 h
Activity calls are given as the source filed them. Rule as the data show it: active = GI50 up to about 1.1 µM and inactive = higher.

{"Molecule": "CCOP(=O)(O)CC1OC(CO)C(O)C1O (stereo not given)", "Value Reported": "> 100 µM (inactive)"}
{"Molecule": "O=C1NCC2(CCN(CC3COc4ccccc4O3)CC2)N1c1ccccc1 (stereo not given)", "Value Reported": "> 100 µM (inactive)"}
{"Molecule": "O=C(NC12CC3CC(CC(F)(C3)C1)C2)c1ccccc1", "Value Reported": "> 100 µM (inactive)"}
{"Molecule": "COC(=O)/C(C#N)=C(/NCCN)Nc1ccccc1", "Value Reported": "> 100 µM (inactive)"}
{"Molecule": "COc1ccc(C(=O)C/C(=N/NC(N)=S)C(=O)Nc2ccccc2)cc1", "Value Reported": "> 100 µM (inactive)"}

For NCI-H23, give the measured GI50 of the entry Cc1c2ccccc2c(C2C3C(=O)N(c4ccc(Br)cc4)C(=O)C3ON2C(C(N)=O)c2ccccc2)c2ccccc12 (stereo not given) 5.56 µM (inactive)

For NCI-H23, give the measured GI50 of the entry COc1cc(OC(=O)c2ccccc2)cc2c1C(=O)C=CC2=O 16.2 µM (inactive)

For NCI-H23, give the measured GI50 of the entry Cc1n(CC(=O)c2ccc([N+](=O)[O-])cc2)c2c([n+]1CC(C)C)C(=O)c1ccccc1C2=O < 0.01 µM (active)

For NCI-H23, give the measured GI50 of the entry O=c1c2cc(Br)ccc2nc(-c2ccccc2Cl)n1NCC1(O)OCC(O)C(O)C1O (stereo not given) > 100 µM (inactive)

For NCI-H23, give the measured GI50 of the entry CCc1cccc(CC)c1NC(=O)C1=C(C)NC(C)=C(C(=O)Nc2c(CC)cccc2CC)C1c1ccc2c(c1)OCO2 17.6 µM (inactive)

For NCI-H23, give the measured GI50 of the entry COC(OC)[C@@H]1OC[C@H](n2ccc(=O)[nH]c2=O)[C@H]1O > 100 µM (inactive)

For NCI-H23, give the measured GI50 of the entry C#CC1(O)CCC2[C@@H]3CCc4cc(Oc5nc(F)nc(-c6c(C)c(C(=O)OCC)n7ccccc67)n5)ccc4C3CC[C@@]21C (stereo not given in full) > 100 µM (inactive)

For NCI-H23, give the measured GI50 of the entry O=C(O)c1cccc(Nc2c(C(=O)O)cccc2[N+](=O)[O-])c1 > 100 µM (inactive)

For NCI-H23, give the measured GI50 of the entry CN(C)c1ccc2c(NCCCCCCNc3ccnc4cc(N(C)C)ccc34)ccnc2c1 10.1 µM (inactive)
